- Experiment Description: intrinsic compound fluorescence with Jurkat cells – cell-based, flow cytometry, artefact control for VLA-4 allosteric ligand project, primary screen (AID 576);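 note: green fluorescence of cells measured with 488 nm excitation and 530 nm emission; tested at 10 µM compound in the well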
- Condition Set: compound autofluorescence, hits give high values, 1 = vehicle-only cell background
Out of some 24,000 compounds screened, about 150 (0.62%) were called active. The full list was thinned out, with actives kept by preference.
Reported fluorescence ratio by item:
Response field accepts a number only; no unit should be typed.

Some molecules with recorded fluorescence ratio:
CC(C)(C)NC(=O)Cn1nnc(-c2ccccc2Cl)n1 :: 3.61
CCOC(=O)N1CCC(NC(=O)COc2cc(=O)n(C)c3ccccc23)CC1 :: 0.98
CCn1cc(C(=O)NC2CCCCCC2)c(=O)c2cc(S(=O)(=O)N3CCCCC3)ccc21 :: 1.18
Cn1c(=O)cc(SCC(=O)N2CCN(C(=O)c3ccco3)CC2)c2ccccc21 :: 1.12
COc1ccc(CCN(Cc2cc3cccc(C)c3[nH]c2=O)C(=O)N2CCCC2)cc1OC :: 1.08
CCc1ccc(NC(=O)CSc2nc3ccccc3c(=O)n2CCN2CCOCC2)cc1 :: 1.15
CCCS(=O)(=O)C(=C1Nc2ccccc2N1)S(=O)(=O)CCC :: 1.04
N#Cc1ccc(COC(=O)Cn2nnc(-c3ccccc3)n2)cc1 :: 1.04

## Task Query: fluorescence ratio; subject: COc1ccc(-c2nc(CS(=O)CC(=O)NCc3cccnc3)c(C)o2)cc1OC (stereo not given)
## Result 0.78

## Task Query: fluorescence ratio; subject: `CCOC(=O)c1ccc(NC(=O)Cn2nnc(-c3ccc(C)cc3)n2)cc1`
## Result 1.04

====

Reported fluorescence ratio by item:
- Experiment Description: intrinsic compound fluorescence with Jurkat cells – cell-based, flow cytometry, artefact control for VLA-4 allosteric ligand project, primary screen (AID 576);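 note: green fluorescence of cells measured with 488 nm excitation and 530 nm emission; tested at 10 µM compound in the well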
- Condition Set: compound autofluorescence, hits give high values, 1 = vehicle-only cell background
In all, about 24,000 compounds went through this assay and about 150 (0.62%) were called active. What follows is part of a selection rich in actives, with near analogues and random picks from the rest.
Response field accepts a number only; no unit should be typed.

Some compounds with recorded fluorescence ratio:
O=C(Cn1nc(Cc2cccnc2)c2ccccc2c1=O)NCC1CCCO1 (stereo not given) :: 1.02
COCCNC(=O)c1snc2ccc(Cl)cc12 :: 1
O=C(CN1CCN(c2ccccc2F)CC1)c1ccc2c(c1)OCO2 :: 1.02
COc1ccccc1N1CCN(Cc2nnnn2CCc2ccccc2)CC1 :: 0.99
C=C1c2cc(CC)ccc2NC(=O)N1c1ccc(C)cc1 :: 1.01

## Task Query: fluorescence ratio; subject: O=C(c1ccco1)N1CCN(C(=O)C2CC(c3ccc(F)cc3)=NO2)CC1 (stereo not given)
## Result 1.01

## Task Query: fluorescence ratio; subject: `Cc1ccc(-c2cc(C(F)(F)F)n3nc(C(=O)N4CCCC4)cc3n2)cc1`
## Result 1.02

## Task Query: fluorescence ratio; subject: `CCOC(=O)n1c(SCC(=O)N(CC)CC)nc2ccccc21`
## Result 0.99

## Task Query: fluorescence ratio; subject: `O=c1c2ccccc2[nH]c(=S)n1CCN1CCC(=C(c2ccc(F)cc2)c2ccc(F)cc2)CC1`
## Result 1.02

## Task Query: fluorescence ratio; subject: `CCOC(=O)N1CCN(CC(=O)c2ccc3c(c2)CCN3)CC1`
## Result 0.99

FYI, the data here is from PubChem BioAssay AID576.
